test system: Staphylococcus epidermidis; test: Antibacterial activity against Staphylococcus epidermidis ATCC 12228 by NCCLS method; assay type: functional
quantity: MIC (µg/mL)
Output spec: scalar in µg/mL, unitless text.

The following molecules have reported results that may help.
CC1(C)S[C@@H]2[C@H](NC(=O)Cc3ccccc3)C(=O)N2[C@H]1C(=O)O; 32
CC(C)NC(=N)c1ccc2[nH]c(-c3ccc(CCc4ccc(-c5nc6cc(C(=N)NC(C)C)ccc6[nH]5)cn4)cc3)nc2c1; 2
N=C(N)c1ccc2[nH]c(-c3ccc(CCc4ccc(-c5nc6cc(C(=N)N)ccc6[nH]5)cc4)cc3)nc2c1; 4

query: Could you tell me which MIC is on file for CC(C)NC(=N)c1ccc2[nH]c(-c3ccc(CCc4ccc(-c5nc6ccccc6[nH]5)cc4)cc3)nc2c1 ?
result: 4

query: What value of MIC has been reported for the following molecule? CCCCNC(=N)c1ccc2[nH]c(-c3ccc(CCc4ccc(-c5nc6cc(C(=N)NCCCC)ccc6[nH]5)cc4)cc3)nc2c1
result: 0.25

query: Fill blank: measured MIC of the molecule COc1ccc(CCc2ccc(-c3nc4ccc(C(=N)NC(C)C)cc4[nH]3)cc2)cc1 is ____.
result: 4

query: # MIC lookup, item N=C(NC1CC1)c1ccc2[nH]c(-c3ccc(CCc4ccc(-c5nc6cc(C(=N)NC7CC7)ccc6[nH]5)cc4)cc3)nc2c1
result: 0.12
